Please provide measured log10(Ki) for the entries that follow.
molecular target: UniProt:P33535
Sequence (P33535 whole entry): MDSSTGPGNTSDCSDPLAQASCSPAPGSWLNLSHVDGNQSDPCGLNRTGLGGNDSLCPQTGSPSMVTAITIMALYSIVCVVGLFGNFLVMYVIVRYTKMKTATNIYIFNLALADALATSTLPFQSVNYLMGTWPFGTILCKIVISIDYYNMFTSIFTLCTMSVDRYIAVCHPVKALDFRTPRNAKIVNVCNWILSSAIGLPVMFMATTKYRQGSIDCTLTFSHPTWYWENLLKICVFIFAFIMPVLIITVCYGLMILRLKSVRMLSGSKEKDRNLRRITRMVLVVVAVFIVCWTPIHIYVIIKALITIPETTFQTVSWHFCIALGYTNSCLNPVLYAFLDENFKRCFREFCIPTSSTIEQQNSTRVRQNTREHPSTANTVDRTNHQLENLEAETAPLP
Heads up: the numbers are on a log10 scale; they represent Ki in nM.

INPUT: Consider the compound shown here: `Cc1cc(O)cc(C)c1C[C@H](N)C(=O)N1Cc2ccccc2C[C@H]1C(=O)NC12C[C@H]3C[C@@H](C1)C[C@@H](C2)C3` What is its recorded log10(Ki)?
OUTPUT: -0.12

INPUT: Also need `Cc1cc(O)cc(C)c1C[C@@H](C(=O)N1Cc2ccccc2C[C@@H]1C(=O)NC12C[C@H]3C[C@@H](C1)C[C@@H](C2)C3)N(C)C` , thanks.
OUTPUT: 1.70

INPUT: And `Cc1cc(O)cc(C)c1C[C@@H](C(=O)N1Cc2ccccc2C[C@H]1C(=O)NC12C[C@H]3C[C@@H](C1)C[C@@H](C2)C3)N(C)C` ?
OUTPUT: 0.05

INPUT: And then `Cc1cc(O)cc(C)c1C[C@H](N)C(=O)N1Cc2ccccc2C[C@@H]1C(=O)NC12C[C@H]3C[C@@H](C1)C[C@@H](C2)C3` , what is it?
OUTPUT: -0.59

INPUT: Now consider `Cc1cc(O)cc(C)c1C[C@H](N)C(=O)N1Cc2ccccc2C[C@H]1C(=O)N[C@@H](C)C(=O)NC12C[C@H]3C[C@@H](C1)C[C@@H](C2)C3` .
OUTPUT: 0.40
